Entry source: ChEMBL document CHEMBL1130465

MIC by entry:
test system: Escherichia coli; test: In vitro antimicrobial activity against Escherichia coli GC 1792 strain; format: functional; details: Escherichia coli; read-out: MIC
Form entry: value (µg/mL) — number only.

Consider the following illustrative entries.
[
  {
    "compound": "CC(C)[C@@H](N)C(=O)NC[C@H]1OCC[C@H]1SC1=C(C(=O)O)N2C(=O)[C@H]([C@@H](C)O)C2[C@H]1C (stereo partly specified)",
    "target-under-test": "Escherichia coli",
    "property-name": "MIC",
    "numeric-value": 0.12
  },
  {
    "compound": "C[C@H]1C(S[C@@H]2COC[C@@H]2CN)=C(C(=O)O)N2C(=O)[C@H]([C@@H](C)O)C12 (stereo partly specified)",
    "target-under-test": "Escherichia coli",
    "property-name": "MIC",
    "numeric-value": 0.12
  },
  {
    "compound": "C[C@H]1C(S[C@@H]2CCO[C@@H]2CNC(=O)[C@H](N)Cc2ccccc2)=C(C(=O)O)N2C(=O)[C@H]([C@@H](C)O)C12 (stereo partly specified)",
    "target-under-test": "Escherichia coli",
    "property-name": "MIC",
    "numeric-value": 0.5
  },
  {
    "compound": "C[C@@H](N)C(=O)NC[C@@H]1C[C@H](SC2=C(C(=O)O)N3C(=O)[C@H]([C@@H](C)O)C3[C@H]2C)CO1 (stereo partly specified)",
    "target-under-test": "Escherichia coli",
    "property-name": "MIC",
    "numeric-value": 0.06
  },
  {
    "compound": "CC[C@@H](C)[C@@H](N)C(=O)NC[C@H]1OCC[C@H]1SC1=C(C(=O)O)N2C(=O)[C@H]([C@@H](C)O)C2[C@H]1C (stereo partly specified)",
    "target-under-test": "Escherichia coli",
    "property-name": "MIC",
    "numeric-value": 0.25
  }
]

Look at this compound and give its reported MIC. C[C@H]1C(S[C@@H]2CCO[C@@H]2CNC(=O)[C@@H](N)Cc2ccccc2)=C(C(=O)O)N2C(=O)[C@H]([C@@H](C)O)C12 (stereo partly specified) 0.5

Look at this compound and give its reported MIC. C[C@H](N)C(=O)NC[C@H]1OCC[C@H]1SC1=C(C(=O)O)N2C(=O)[C@H]([C@@H](C)O)C2[C@H]1C (stereo partly specified) 0.12

Look at this compound and give its reported MIC. C[C@H]1C(SC2COC(CN)C2)=C(C(=O)O)N2C(=O)[C@H]([C@@H](C)O)C12 (stereo in doubt; trans) 0.06

Look at this compound and give its reported MIC. C[C@@H](N)C(=O)NC[C@@H]1COC[C@@H]1SC1=C(C(=O)O)N2C(=O)[C@H]([C@@H](C)O)C2[C@H]1C (stereo partly specified) 0.25

Look at this compound and give its reported MIC. C[C@@H](N)C(=O)NC[C@@H]1C[C@@H](SC2=C(C(=O)O)N3C(=O)[C@H]([C@@H](C)O)C3[C@H]2C)CO1 (stereo partly specified) 0.12
